Record form. Attribute: GI50. Fill in for each entry.
- System: IGROV-ET
- protocol.summary: SRB colorimetric assay of cell growth and viability, IGROV-ET
- Assay type: cell-based, human
- applied.conditions: 48 hours exposure
Quick reminder: number only, in µM, skip the unit.

Quick check: GI50 of C/C=C1\NC(=O)[C@H](Cc2ccccc2)NC(=O)[C@@H](C(C)C)NC(=O)[C@@H]([C@@H](C)CC)NC(=O)[C@H](NC(=O)[C@H](NC(=O)[C@H](CCCN)NC(=O)[C@H]2CCCN2C(=O)[C@H](NC(=O)[C@@H](NC(=O)[C@@H](NC(=O)CNC(=O)CCCC(C)C)[C@@H](C)O)C(C)C)C(C)C)[C@@H](C)CC)[C@@H](C)OC(=O)[C@H](C(C)C)NC1=O [Compound 33, [Gly^13]-KF] ?
5.27

Entry C/C=C1\NC(=O)[C@H](Cc2ccccc2)NC(=O)[C@@H](C(C)C)NC(=O)[C@@H]([C@@H](C)CC)NC(=O)[C@H](NC(=O)[C@H](NC(=O)[C@H](CCCN)NC(=O)[C@H]2CCCN2C(=O)[C@H](NC(=O)[C@@H](NC(=O)[C@@H](NC(=O)[C@@H](CCC(N)=O)NC(=O)CCCC(C)C)[C@@H](C)O)C(C)C)C(C)C)[C@@H](C)CC)[C@@H](C)OC(=O)[C@H](C(C)C)NC1=O [Compound 40, [D-Gln^13]-KF] please
1.31

Values from patent US20070117743A1
